Origin of values: patent US20220275067A1

- Measurement target: T1, recombinant human 4R0N tau (human, UniProt P10636 2-758)
- T1 construct: also called recombinant 4R0N human tau; P10636-6
- T1 sequence (P10636 other isoform, or with tags, fused parts or gaps limits assumed): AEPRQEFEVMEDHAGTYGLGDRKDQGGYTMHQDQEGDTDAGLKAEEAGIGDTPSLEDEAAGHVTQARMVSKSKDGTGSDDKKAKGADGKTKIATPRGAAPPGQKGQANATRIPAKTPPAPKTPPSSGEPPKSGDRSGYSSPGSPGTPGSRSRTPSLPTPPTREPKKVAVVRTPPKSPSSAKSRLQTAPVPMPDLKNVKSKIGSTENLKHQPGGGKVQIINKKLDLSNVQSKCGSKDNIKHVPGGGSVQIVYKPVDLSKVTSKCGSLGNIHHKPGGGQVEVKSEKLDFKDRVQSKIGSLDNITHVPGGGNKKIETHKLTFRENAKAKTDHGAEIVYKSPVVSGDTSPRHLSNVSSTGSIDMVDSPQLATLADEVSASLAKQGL
- Protocol: SPR Biacore T200; antibody captured by anti-human Fc; tau as analyte; global 1:1 fit
Measure name: koff (s⁻¹)
The reply should contain only the number, in s⁻¹.

[in] Which value of koff has been reported for hu9F5VHv9/hu9F5VLv8_DIM19 (antibody, V domains shown) VH: EVQLVQSGAEVKKPGATVKISCKASGFNIKDDYMNWVQQRPGKGLEWIGWIDPENGDTEYASKFQGRATMTADTSTNTAYMELSSLRSEDTAVYYCTTSNGWGQGTLVTVSS VL: DIQMTQSPFSLPVTPGESASISCRSSKSLSHSNGITYLYWYIQKPGQSPQLLIYQISNRASGVPNRFSSSGSGTDFTLKISRVEAEDVGVYYCAQNIELPLTFGQGTKLEIK in the records?
[out] 0.00215

[in] Which value of koff has been reported for hu9F5VHv9/hu9F5VLv8_DIM10 (antibody, V domains shown) VH: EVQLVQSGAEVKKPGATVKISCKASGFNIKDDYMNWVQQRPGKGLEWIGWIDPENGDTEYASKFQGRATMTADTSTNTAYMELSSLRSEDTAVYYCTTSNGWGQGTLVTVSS VL: DIQMTQSPFSLPVTPGESASISCRSSKSLSHSNGITYLYWYQQKPGQSPQLLIYQKSNGASGVPNRFSSSGSGTDFTLKISRVEAEDVGVYYCAQNIELPLTFGQGTKLEIK in the records?
[out] 0.0741

[in] Which value of koff has been reported for hu9F5VHv9/hu9F5VLv8_DIM29 (antibody, V domains shown) VH: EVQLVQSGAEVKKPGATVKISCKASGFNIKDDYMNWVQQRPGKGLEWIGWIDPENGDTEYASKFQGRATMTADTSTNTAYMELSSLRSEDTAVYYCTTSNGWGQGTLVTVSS VL: DIQMTQSPFSLPVTPGESASISCRSSKSLSHSNGITYLYWYQQKPGQSPQLLIYQMSNRASGVPNRFSSSGSGTDFTLKISRVEAEDVGVYYCAQNIELPLTFGQGTKLEIK in the records?
[out] 0.000534
